- protocol-summary: BET inhibitor-based combinations targeting novel dependencies in MECOM-rearranged (r) AML: UCSD-AML1 cell line (AID 2202235); note: nearly all actives have a fitted effect of over 40% in size
- condition-description: UCSD-AML1 AML cells viability, CellTiter-Glo, 48 h; series mostly up to 46 µM
Results filed as inconclusive are left out. Active and inactive are the calls of the source. Calls come from the whole dose curve; as a rule, active = well fitted inhibition curve with a large enough effect; inconclusive = small, poorly fitted or top-dose-only effect; inactive = no such curve, though single readings can be large or run the other way.
Log the outcome using a class from active, inactive

q: Which outcome was entered for the compound NC[C@H](O)c1ccc(O)c(O)c1 in this test?
a: inactive

q: Which outcome was entered for the compound CC(C)COCC(CN(Cc1ccccc1)c1ccccc1)N1CCCC1 (stereo not given) in this test?
a: active

q: Which outcome was entered for the compound N[C@@H](Cc1cc(I)c(Oc2cc(I)c(O)c(I)c2)c(I)c1)C(=O)O in this test?
a: inactive

q: Which outcome was entered for the compound OCCN1CCN(CCCN2c3ccccc3Sc3ccc(C(F)(F)F)cc32)CC1 in this test?
a: inactive

q: Which outcome was entered for the compound CN(C)Cc1c(C(=O)NCCOc2ccc(C(=O)NO)cc2)oc2ccccc12 in this test?
a: active

q: Which outcome was entered for the compound COc1cc(C)c(Sc2cnc(NC(=O)c3ccc(CNC(C)C(C)(C)C)cc3)s2)cc1C(=O)N1CCN(C(C)=O)CC1 (stereo not given) in this test?
a: active

q: Which outcome was entered for the compound COC(=O)Nc1cc(Nc2cc(NC3CC3)c3ncc(C#N)n3n2)c(Cl)c(N2CCN(C)CC2)c1 in this test?
a: active

q: Which outcome was entered for the compound Cc1cc(=O)oc2cc(O)ccc12 in this test?
a: inactive

q: Which outcome was entered for the compound O=C(Nc1ncc(-c2cc(C(F)F)nn2-c2c(Cl)cccc2Cl)s1)C1CC1 in this test?
a: active

q: Which outcome was entered for the compound Nc1nc(Cl)nc2c1ncn2[C@@H]1O[C@H](CO)[C@@H](O)[C@@H]1F in this test?
a: active
